Test system: TEL-BaF3-FLT3-D835Y (stably expressing FLT3 D835Y mutant activated kinase)
Assay: Cell proliferation, Cell Titer-Glo, TEL-BaF3-FLT3-D835Y
Assay type: cell-based
Conditions: Mus musculus; incubated for 72 hours; read-out: TEL-BaF3-FLT3-D835Y IC50
ENDPOINT LABEL: pIC50
// field semantics: pIC50 = negative decimal log of concentration (mol/L)

{"COMPOUND": "CC(C)C[C@@H](N)C(=O)N1CCC[C@@H](n2nc(-c3ccc(Oc4ccccc4)cc3)c3c(N)ncnc32)C1 [Compound 27]", "RECORDED MEASUREMENT": 7.74}
{"COMPOUND": "N#CCC(=O)N1CCC[C@@H](n2nc(-c3ccc(Oc4ccccc4)cc3)c3c(N)ncnc32)C1 [Compound 20]", "RECORDED MEASUREMENT": 6.82}
{"COMPOUND": "CN(C)CC(=O)NC1CCC(n2nc(-c3ccc(Oc4ccccc4)cc3)c3c(N)ncnc32)CC1 (stereo not shown) [Compound 76]", "RECORDED MEASUREMENT": 7.64}
{"COMPOUND": "Nc1ncnc2c1c(-c1ccc(Oc3ccccc3)cc1)nn2[C@@H]1CCCN(C(=O)[C@@H](N)Cc2ccc(O)cc2)C1 [Compound 11]", "RECORDED MEASUREMENT": 7.70}

Task: I have this compound here, CC[C@@H](C)[C@@H](N)C(=O)N1CCC[C@@H](n2nc(-c3ccc(Oc4ccccc4)cc3)c3c(N)ncnc32)C1 [Compound 25] , and I need its recorded pIC50.
Result: 6.74

Task: Nc1ncnc2c1c(-c1ccc(Oc3ccccc3)cc1)nn2[C@@H]1CCCN(C(=O)[C@H](N)Cc2ccccc2)C1 [Compound 26] , same question.
Result: 6.44

Task: CN1CCC(C(=O)N2CCC[C@@H](n3nc(-c4ccc(Oc5ccccc5)cc4)c4c(N)ncnc43)C2)CC1 [Compound 33] , same question.
Result: 6.85
